- Test system: HCC-2998 colon
- Method: NCI-60 one-dose screen, 48 h
- Assay context: 10 µM unless noted
- Description: Growth inhibition of the HCC-2998 human tumor cell line is measured as a screen for anti-cancer activity. Cells are grown in 96 well plates and exposed to the test compound for 48 hours. Compounds are tested at a single concentration, which is 10^-5 M for most compounds. The reported endpoint is percent growth (GI% or GIPRCNT), where numbers from 0 - 100% represent growth inhibition, and numbers from -100% - 0 represent cell death. For example, a value of 40 represents 60% growth inhibition. […]
This is part of a sample that, as a whole, favours compounds with a hit. Of some 83,000 tested, about 20% had one in any assay. Activity calls are given as the source filed them. Rule for the calls: active = growth percent below 10; inactive = the rest.
Possible outcomes: active, inactive

# Compound, Label
rows = [
    ("CNC(=O)c1cc(Oc2ccc3nc(NC(=O)c4ccc(N5CCOCC5)c(C(F)(F)F)c4)sc3c2)ccn1", "inactive"),
    ("CN(C)CCCOc1ccc2c(c1)CN(C(=O)c1cc(C(=O)N3Cc4cccc(F)c4C3)ccc1O)C2", "inactive"),
    ("NC(N)=Nc1ccc(Oc2cccc(Nc3ccc(Cl)cc3)c2)cn1", "active"),
    ("CNC(=O)c1cc(Oc2ccc3nc(NC(=O)c4cccc(OC(F)(F)F)c4)sc3c2)ccn1", "inactive"),
    ("c1cc(-c2nc3ccc4[nH]ncc4c3c3c2CCCC3)[nH]n1", "inactive"),
    ("COc1cc2nc(Cl)nc(Nc3cccc(C4=Nc5c(N)nc(N)nc5NC(c5ccccc5)C4)c3)c2cc1OC (centres undefined)", "inactive"),
    ("Cc1ccc2c(c1)C13C(=C2Br)CCCN1C(=O)c1ccccc13 (centres undefined)", "inactive"),
    ("CCn1c(SCC(=O)Nc2cccc(C(=O)/C=C/c3ccc(C)cc3)c2)nc2ccccc2c1=O", "inactive"),
    ("NC/C(=C/F)COc1ccc2nc(NCc3cccnc3)oc2c1", "inactive"),
    ("Cc1cc(-c2ccc(Cl)cc2)n(Cc2nnc(SCC(=O)Nc3ccc(S(N)(=O)=O)cc3)n2C2CCCCC2)n1", "inactive"),
    ("Brc1ccccc1/C=N/Nc1nc(N/N=C/c2ccccc2Br)nc(N2CCOCC2)n1", "inactive"),
    ("Cc1ccc(-n2cc(/C=N/NC(=O)c3nc(N)n[nH]3)c(-c3ccc(S(C)(=O)=O)cc3)n2)cc1", "inactive"),
    ("CS(=O)(=O)c1ccc(-n2cc(/C=N/O)c(-c3ccccc3)n2)cc1", "inactive"),
    ("CCOc1ccc(C(=O)Nc2ncc(Cc3ccc(F)cc3)s2)cc1", "inactive"),
    ("C=CCn1c(-c2nc3ccc(C(=C(C#N)C#N)c4ccccc4)cc3[nH]2)cc2cc(Br)ccc21", "inactive"),
    ("CN1c2ccccc2Sc2cc(C=C(C#N)C#N)ccc21", "inactive"),
    ("C#C[C@]1(O)CC[C@H]2[C@@H]3CC=C4c5sc(-c6ccc7c(c6)OCO7)nc5CC[C@]4(C)[C@H]3CC[C@@]21C", "inactive"),
    ("CC(C)(C)CC(C)(C)n1nnnc1C(Nc1nccs1)c1cc2cccc3ccc4cccc1c4c32 (centres undefined)", "inactive"),
    ("C=C(C=O)[C@@H]1CC[C@]2(C)[C@H](CC=C3[C@H]4[C@@H](C)[C@H](C)CC[C@]4(C(=O)OC)CC[C@]32C)[C@@]1(C)CCC#N", "active"),
    ("CC/C(=C/c1cc(OC)ccc1O)c1ccc2cc(OC)ccc2[o+]1", "inactive"),
    ("Cc1cccc2c3c(sc12)C(c1ccc(Cl)cc1)c1c(nc(CC(=O)Nc2ccccc2)[nH]c1=O)O3 (centres undefined)", "inactive"),
    ("COc1cccc(C(=O)Nc2cccc(C#Cc3cccc4[nH]nc(N)c34)c2)c1", "inactive"),
    ("Oc1ccc(CSc2nnc(-c3ccc(Cl)cc3)n2-c2ccccc2)c2cccnc12", "inactive"),
    ("COc1cc(-c2nc(SCCC(C)C)nc(NNC(=O)c3ccncc3)c2C#N)cc(OC)c1OC", "inactive"),
]

Data origin, for the record: PubChem BioAssay (NCI)
